Consider the following compounds and their measured TGI readings.
# Tested on: BT-549 breast
# measurementProtocol: NCI tumour cell line growth inhibition, 48 h
Report as a plain number; the unit µM is understood.

q: Record lookup: for BT-549 breast, what TGI belongs to COc1ccc(C(c2cc3c(cc2O)OCO3)N2CCOCC2)cc1OC (stereo not given) ?
a: 43.8

Then this compound:
q: Record lookup: for BT-549 breast, what TGI belongs to COc1cc(C)c(NC(=O)CN(C)C)cc1Nc1nc(Nc2cccc(F)c2C(N)=O)c2cc[nH]c2n1 ?
a: 18.9

###

Consider the following molecules and their measured TGI readings.
# System: OVCAR-8 ovarian
# measurementProtocol: NCI tumour cell line growth inhibition, 48 h
Report as a plain number; the unit µM is understood.

q: What measured TGI goes with COc1ccc2nc(-c3cc4c([nH]c5ccccc54)c(-c4ccc(F)c(F)c4)n3)[nH]c2c1 ?
a: 18.1

Then this molecule:
q: What measured TGI goes with COc1cc(N2CCC(N3CCN(C)CC3)CC2)ccc1Nc1ncc(Cl)c(Nc2ccccc2S(=O)(=O)C(C)C)n1 ?
a: 7.76

###

Consider the following compounds and their measured TGI readings.
# Tested on: A498 renal
# measurementProtocol: NCI tumour cell line growth inhibition, 48 h
Where a SMILES comes first, the peptide text is derived from it. [ ]: non-standard residue; d: D form. The star is where a group is joined. Bn2Val = CC(C)[C@@H](C(=O)*)N(Cc1ccccc1)Cc1ccccc1; NH(3,4-diMeO-benzyl) = COc1ccc(CN*)cc1OC; NMeV = CN[C@H](C(=O)O)C(C)C
Report as a plain number; the unit µM is understood.

Below are worked cases with known answers.
q: What measured TGI goes with COc1ccc(CNC(=O)[C@@H]2CCCN2C(=O)[C@@H]2CCCN2C(=O)[C@H](C(C)C)N(C)C(=O)[C@@H](NC(=O)[C@H](C(C)C)N(Cc2ccccc2)Cc2ccccc2)C(C)C)cc1OC (Bn2Val-V[NMeV]PP-{NH(3,4-diMeO-benzyl)}) ?
a: 31.6

q: Consider next the compound COc1cc2c(cc1OCCCN1CCN(c3ncnc4ccccc34)CC1)N=CC1CCCN1C2=O (stereo not drawn) in the same way.
a: 0.0164

q: Consider next the compound COC1=C(OC)[C@]2(OC)c3c(O)c(OC)c4c(c3O[C@@]23O[C@@H](c2ccccc2)CC=C3C1=O)[C@@H](O)C[C@H](c1ccccc1)O4 in the same way.
a: 2.35

Then this compound:
q: What measured TGI goes with c1ccc2c(c1)[nH]c1c2ncc2[nH]c3ccccc3c21 ?
a: 9.07

###

# Test system: UACC-257 melanoma
# measurementProtocol: NCI tumour cell line growth inhibition, 48 h
Consider the following compounds and their measured GI50 readings.

q: What measured GI50 goes with C=C1C(=O)O[C@H]2[C@H]1CC/C(COC(=O)NCc1cc(OC)cc(OC)c1)=C\CC[C@@]1(C)O[C@@H]21 ?
a: 1.54 µM

q: Consider next the compound Oc1c(CN2CCN(c3ccccc3F)CC2)cc(Br)c2cccnc12 in the same way.
a: 2.06 µM

q: Consider next the compound Cc1ccc(C2=NN(c3ccc(S(N)(=O)=O)cc3)C(c3cn(-c4ccccc4)nc3-c3ccccc3)C2)cc1 (stereo unspecified) in the same way.
a: 29.6 µM

q: Consider next the compound C[C@@H]1OCC2(CCN(c3cnc(Sc4ccnc(N)c4Cl)c(N)n3)CC2)[C@@H]1N in the same way.
a: > 100 µM

q: Consider next the compound COc1ccc2nc(-c3cc4c([nH]c5ccccc54)c(-c4ccc(F)c(F)c4)n3)[nH]c2c1 in the same way.
a: 5.68 µM

q: Consider next the compound C/C(=C\c1ccn(-c2ccc(N)cc2F)n1)[C@@H]1C[C@@H]2O[C@]2(C)CCC[C@H](C)[C@H](O)[C@@H](C)C(=O)C(C)(C)[C@@H](O)CC(=O)O1 in the same way.
a: > 50 µM
